# measurement-target: glucocorticoid receptor (Homo sapiens, UniProt P04150)
# Construct: expressed in transfected cells
# Sequence (P04150 524-758 limits assumed): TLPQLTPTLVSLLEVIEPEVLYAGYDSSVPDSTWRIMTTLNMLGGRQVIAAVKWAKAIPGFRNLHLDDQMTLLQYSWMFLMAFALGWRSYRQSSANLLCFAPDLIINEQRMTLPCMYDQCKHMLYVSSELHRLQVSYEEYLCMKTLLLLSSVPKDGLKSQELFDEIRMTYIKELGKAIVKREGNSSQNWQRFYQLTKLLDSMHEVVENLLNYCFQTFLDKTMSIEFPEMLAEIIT
# test: Agonistic mode of action on the glucocorticoid receptor (CHO-Gal4/GR luciferase reporter cell line)
# Assay type: cell-based
# condition-info: range class observed in the agonistic assay or the antagonistic assay (CHO-Gal4/GR reporter cells); table does not say which mode applies per example
Listing: IC50 or EC50 (agonist or antagonist mode not specified) of selected compounds

Cc1nnc2n1-c1c(cc(F)c(-c3cccc4c3ccn4CCN(C)C)c1F)NC2(C)C [Example 383]: 1000 to 15000 nM
Cc1nnc2n1-c1c(cc(F)c(-c3cccc4c3ccn4S(C)(=O)=O)c1F)NC2(C)C [Example 22]: 100 to 1000 nM
Cc1c(-c2cccc3c2ccn3CC(F)F)c(OC(F)F)cc2c1-n1c(C)nnc1C(C)(C)N2 [Example 384]: 1000 to 15000 nM
Cc1c(-c2cc(F)cc3c2ccn3C)c(Cl)cc2c1-n1c(C)nnc1C(C)(C)N2 [Example 519]: < 100 nM
Cc1nnc2n1-c1c(cc(F)c(-c3cccc4c3ccn4C(=O)CN(C)C)c1F)NC2(C)C [Example 223]: < 100 nM

Data request: Request body: readout IC50 or EC50 (agonist or antagonist mode not specified), system glucocorticoid receptor (Homo sapiens, UniProt P04150), query Cc1nnc2n1-c1c(cc(F)c(-c3ccc(F)c4c3ccn4S(C)(=O)=O)c1C(F)(F)F)NC2(C)C [Example 484] . Return the value.
Data returned: 100 to 1000 nM

Data request: Request body: readout IC50 or EC50 (agonist or antagonist mode not specified), system glucocorticoid receptor (Homo sapiens, UniProt P04150), query Cc1nnc2n1-c1c(cc(F)c(-c3c(F)ccc4c3ccn4S(C)(=O)=O)c1F)NC2(C)C [Example 224] . Return the value.
Data returned: 100 to 1000 nM

Data request: Request body: readout IC50 or EC50 (agonist or antagonist mode not specified), system glucocorticoid receptor (Homo sapiens, UniProt P04150), query Cc1c(-c2cccc3c(C4CCOC4)c[nH]c23)c(F)cc2c1-n1c(C)nnc1C(C)(C)N2 (stereo not shown) [Example 42] . Return the value.
Data returned: < 100 nM

Data request: Request body: readout IC50 or EC50 (agonist or antagonist mode not specified), system glucocorticoid receptor (Homo sapiens, UniProt P04150), query Cc1c(-c2cccc3c2cnn3S(C)(=O)=O)c(Cl)cc2c1-n1c(C)nnc1C(C)(C)N2 [Example 386] . Return the value.
Data returned: 1000 to 15000 nM

Data request: Request body: readout IC50 or EC50 (agonist or antagonist mode not specified), system glucocorticoid receptor (Homo sapiens, UniProt P04150), query Cc1c(-c2cccc3c2ccn3C2CC2)c(F)cc2c1-n1c(C)nnc1C(C)(C)N2 [Example 27] . Return the value.
Data returned: < 100 nM

---

# measurement-target: glucocorticoid receptor (Homo sapiens, UniProt P04150)
# Construct: expressed in transfected cells
# test: Agonistic mode of action on the glucocorticoid receptor (CHO-Gal4/GR luciferase reporter cell line)
# Assay type: cell-based
# condition-info: range class observed in the agonistic assay or the antagonistic assay (CHO-Gal4/GR reporter cells); table does not say which mode applies per example
measurement-name: IC50 or EC50 (agonist or antagonist mode not specified)

COc1c(-c2cccc3c(C)n[nH]c23)c(F)cc2c1-n1c(C)nnc1C(C)(C)N2 [Example 381]: 1000 to 15000 nM
CCc1nnc2n1-c1c(cc(F)c(-c3cccc4c3cnn4C)c1C)NC2(C)C [Example 240]: 1000 to 15000 nM
Cc1c(-c2cc(F)cc3c2cnn3CC(F)F)c(OC(F)(F)F)cc2c1-n1c(C)nnc1C(C)(C)N2 [Example 469]: 100 to 1000 nM
Cc1c[nH]c2c(-c3c(F)cc4c(c3F)-n3c(Cc5ccccn5)nnc3C(C)(C)N4)cc(F)cc12 [Example 74]: < 100 nM
COc1cc2c(c(C(F)(F)F)c1-c1cc(F)cc3c(C)c[nH]c13)-n1c(C)nnc1C(C)(C)N2 [Example 407]: < 100 nM

Data request: # input molecule: Cc1nnc2n1-c1c(ccc(-c3cccc4c3ccn4S(C)(=O)=O)c1C(F)(F)F)NC2(C)C [Example 498] ; wanted: its IC50 or EC50 (agonist or antagonist mode not specified)
Data returned: 100 to 1000 nM

Data request: # input molecule: Cc1c(-c2cc(Cl)cc3[nH]ccc23)c(F)cc2c1-n1c(C)nnc1C(C)(C)N2 [Example 513] ; wanted: its IC50 or EC50 (agonist or antagonist mode not specified)
Data returned: 100 to 1000 nM

Data request: # input molecule: Cc1c(-c2cccc3c(C)c[nH]c23)c(Cl)cc2c1-n1c(C)nnc1C(C)(C)N2 [Example 358] ; wanted: its IC50 or EC50 (agonist or antagonist mode not specified)
Data returned: < 100 nM

Data request: # input molecule: COCCn1ccc2c(-c3c(C(F)F)cc4c(c3F)-n3c(C)nnc3C(C)(C)N4)cccc21 [Example 295] ; wanted: its IC50 or EC50 (agonist or antagonist mode not specified)
Data returned: 1000 to 15000 nM

Data request: # input molecule: Cc1c[nH]c2c(-c3c(F)cc4c(c3C3CC3)-n3c(C)nnc3C(C)(C)N4)cccc12 [Example 463] ; wanted: its IC50 or EC50 (agonist or antagonist mode not specified)
Data returned: < 100 nM
